- System: HEp-2
- assay protocol: Cytotoxicity against Homo sapiens (human) Hep2 cells after 24 hr by MTT assay
- Assay type: functional, cell-based
- test conditions: HEp-2, 24 h
pIC50: −log10 of the molar value.
Give fulfilled when the value for pIC50 is at least 4. Give not fulfilled when it is less.

Record Nc1ccc(N2C(=O)[C@@H]3C4C=CC(CC4)[C@@H]3C2=O)cc1 ; criterion: pIC50 no lower than 4. Met?
not fulfilled

Record O=C1c2ccccc2C(=O)N1c1ccccn1 ; criterion: pIC50 no lower than 4. Met?
fulfilled

# bool: pIC50 of Nc1ccc(N2C(=O)c3cccc4cccc(c34)C2=O)cc1 >= 4
fulfilled

Hi, just wondering whether O=C1c2ccccc2C(=O)N1c1ccc(-c2ccccc2)cc1 shows pIC50 of 4 or higher.
fulfilled

Threshold query (pIC50 >= 4) on O=C1c2ccccc2C(=O)N1c1cccc([N+](=O)[O-])c1
not fulfilled

Quick check: does COc1ccc(N2C(=O)C3C4C=CC(CC4)C3C2=O)cc1 (centres undefined) have pIC50 greater than or equal to 4?
not fulfilled

hey, is pIC50 for this one >= 4? O=C1c2ccccc2C(=O)N1c1ccc(Cl)cc1
not fulfilled

Assess whether reported pIC50 for O=C1c2ccccc2C(=O)N1c1ccc(Cl)cn1 sits at 4 or higher.
fulfilled

Answer whether pIC50 of O=C1c2ccccc2C(=O)N1c1ccc(S)cc1 is greater than or equal to 4.
not fulfilled

Is pIC50 at least 4? Consider Cc1ccc2c(c1)C(=O)N(c1ccc([N+](=O)[O-])cn1)C2=O
not fulfilled

More entries:
Decide: is the reported value of pIC50 for O=C1C2C3C=CC(CC3)C2C(=O)N1c1ccccc1 (centres undefined) equal to or greater than 4?
fulfilled

Reported pIC50 reaches at least 4 for COc1ccc(N2C(=O)c3ccccc3C2=O)cc1 ?
not fulfilled

Please check the record O=C1c2ccccc2C(=O)N1c1ccccc1 [N-PHENYL-PHTHALIMIDE] and state if its pIC50 is at or above 4.
not fulfilled
